Assay: in vivo
Settings: Sprague-Dawley, rat, iv, 4 mg/kg
value type: AUC(0-t) at 24 h (ng·h/mL)

smiles record: Cn1c(C(=O)NCCCN2CCOCC2)cc2c(-c3ccc(NC(=O)C(C)(C)C)cc3)ncnc21
value type: AUC(0-t) at 24 h
unit descriptor: ng·h/mL
experimental result: 19700

* * *

Experiment: in vivo
Details: Sprague-Dawley, rat, iv, 4 mg/kg

smiles record: Cn1c(C(=O)NCCCN2CCOCC2)cc2c(-c3ccc(NC(=O)C(C)(C)C)cc3)ncnc21
unit descriptor: ng/mL
Cmax: 9730

* * *

Assay: in vivo
Details: Sprague-Dawley, rat, po, 10 mg/kg
Description: Half life in Sprague-Dawley rat at 10 mg/kg, po administered through gavage
value type: half-life (h)

smiles record: Cn1c(C(=O)NCCCN2CCOCC2)cc2c(-c3ccc(NC(=O)C(C)(C)C)cc3)ncnc21
value type: half-life
unit descriptor: h
experimental result: 2.32
